Test target: human androgen receptor (Homo sapiens, UniProt P10275)
Construct: expressed in transfected cells; host or cells: HEK293
Sequence (P10275 1-920): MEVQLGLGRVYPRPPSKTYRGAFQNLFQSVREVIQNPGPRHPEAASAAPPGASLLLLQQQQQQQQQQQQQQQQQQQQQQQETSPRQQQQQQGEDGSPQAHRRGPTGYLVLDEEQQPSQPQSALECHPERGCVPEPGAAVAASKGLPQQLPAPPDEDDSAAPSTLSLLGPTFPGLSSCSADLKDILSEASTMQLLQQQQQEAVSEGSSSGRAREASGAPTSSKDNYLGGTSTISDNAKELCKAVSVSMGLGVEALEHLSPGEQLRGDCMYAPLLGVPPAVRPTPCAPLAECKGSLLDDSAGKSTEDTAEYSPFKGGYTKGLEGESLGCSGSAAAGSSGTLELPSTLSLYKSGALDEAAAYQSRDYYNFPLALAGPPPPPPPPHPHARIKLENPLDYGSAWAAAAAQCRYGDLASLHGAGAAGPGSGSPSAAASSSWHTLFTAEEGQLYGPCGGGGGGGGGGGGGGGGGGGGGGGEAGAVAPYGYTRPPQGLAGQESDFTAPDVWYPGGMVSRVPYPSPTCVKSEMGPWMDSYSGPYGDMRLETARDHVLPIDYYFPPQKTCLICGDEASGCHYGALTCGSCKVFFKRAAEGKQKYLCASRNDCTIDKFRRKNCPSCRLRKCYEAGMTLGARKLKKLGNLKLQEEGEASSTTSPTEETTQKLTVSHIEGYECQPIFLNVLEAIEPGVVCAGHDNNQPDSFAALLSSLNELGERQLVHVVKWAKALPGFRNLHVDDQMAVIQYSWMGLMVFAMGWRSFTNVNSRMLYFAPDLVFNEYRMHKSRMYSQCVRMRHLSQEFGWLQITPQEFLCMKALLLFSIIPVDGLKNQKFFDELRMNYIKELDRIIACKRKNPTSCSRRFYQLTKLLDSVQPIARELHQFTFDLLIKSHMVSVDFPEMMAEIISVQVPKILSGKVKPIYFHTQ
Method description: Reporter assay of an androgen receptor responsive sequence (luciferase, transiently transfected HEK293 cells)
Format: cell-based
Measurement parameters: 24 hours incubation, relative to activity of 100 nM DHT, read-out: AR transcriptive activity (pEC50) (converted)
Endpoint name: EC50 (nM)

{"Structure as smiles": "CCCCCCN(c1ccc(C#N)cc1)c1nc(C(=O)NS(C)(=O)=O)c(C)s1", "Test target": "human androgen receptor (Homo sapiens, UniProt P10275)", "Endpoint name": "EC50", "U": "nM", "Numeric value": 398}
{"Structure as smiles": "Cc1ccc(CN(c2ccc(C#N)cc2)c2nc(C(=O)NS(C)(=O)=O)c(C)s2)cc1F", "Test target": "human androgen receptor (Homo sapiens, UniProt P10275)", "Endpoint name": "EC50", "U": "nM", "Numeric value": 31.6}
{"Structure as smiles": "COc1cccc(CN(c2ccc(C#N)cc2)c2nc(C(=O)NS(C)(=O)=O)c(C)s2)n1", "Test target": "human androgen receptor (Homo sapiens, UniProt P10275)", "Endpoint name": "EC50", "U": "nM", "Numeric value": 316}
{"Structure as smiles": "Cc1oc(N(CCc2ccc(Cl)cc2)Cc2ccc3ncsc3c2)nc1C(=O)NS(C)(=O)=O", "Test target": "human androgen receptor (Homo sapiens, UniProt P10275)", "Endpoint name": "EC50", "U": "nM", "Numeric value": 158}
{"Structure as smiles": "Cc1sc(N(Cc2ccc3nonc3c2)c2ccc(C#N)cc2)nc1C(=O)NS(C)(=O)=O", "Test target": "human androgen receptor (Homo sapiens, UniProt P10275)", "Endpoint name": "EC50", "U": "nM", "Numeric value": 631}
{"Structure as smiles": "Cc1sc(N(Cc2ccoc2)c2ccc(C#N)cc2)nc1C(=O)NS(C)(=O)=O", "Test target": "human androgen receptor (Homo sapiens, UniProt P10275)", "Endpoint name": "EC50", "U": "nM", "Numeric value": 1580}

I. Cc1sc(N(Cc2ccc(F)c(Cl)c2)c2ccc(C#N)cc2)nc1C(=O)NS(C)(=O)=O
II. Cc1sc(N(Cc2ccc3ncccc3c2)c2ccc(C#N)cc2)nc1C(=O)NS(C)(=O)=O
Returns: the label, I or II , whose recorded EC50 is the lower number. Answer with the label corresponding to your selection.
I

P. Cc1sc(N(Cc2cccc(SC(F)(F)F)c2)c2ccc(C#N)cc2)nc1C(=O)NS(C)(=O)=O
Q. Cc1sc(N(Cc2ccc(F)cc2)c2ccc(C#N)cc2)nc1C(=O)NS(C)(=O)=O
Returns: the label, P or Q , whose recorded EC50 is the lower number. Answer with the label corresponding to your selection.
Q
(Q: 39.8 nM, P: 316 nM)

P. Cc1oc(N(Cc2ccc(Cl)cc2)c2ccc(C#N)cc2)nc1C(=O)NS(C)(=O)=O
Q. Cc1sc(N(CCc2ccc(Cl)cc2Cl)Cc2ccccc2)nc1C(=O)NS(C)(=O)=O
Returns: the label, P or Q , whose recorded EC50 is the lower number. Answer with the label corresponding to your selection.
Q
